Data provenance: patent US7166622B2

Tested on: beta amyloid production
test details: Repressor Release Assay (RRA)
Format: cell-based
settings: Conc 20 μg/ml; luciferase activity over diluent control; read-out: APPI Fold Increase
Recorded fold induction at 20 µg/mL, one value per entry.
assay readout: fold induction at 20 µg/mL

> print(dat)
                                   molecule           assayed.target  assay.value
1  O=S(=O)(N[C@H](CO)Cc1ccc(OCc2ccccc2)cc1)c1ccc(Cl)cc1  beta amyloid production          1.5
2  CCCC(CO)NS(=O)(=O)c1ccc(Br)cc1 (centres unmarked)  beta amyloid production          1.5
3  O=S(=O)(N[C@H](CO)Cc1ccccc1)c1ccc(Br)cc1  beta amyloid production          1.5
4  C/C=C(\C)C(O)(/C(C)=C/C)[C@@H](NS(=O)(=O)c1ccc(F)cc1)[C@@H](C)CC (some centres unmarked)  beta amyloid production          3.5
5   O=S(=O)(N[C@H](CO)c1ccccc1)c1ccc(Br)cc1  beta amyloid production          1.6
